CC50 values, listed per item
- System: Akata cells
- ASSAY_METHOD_TEXT: Cell viability of Akata cells, modified MTS assay
- ASSAY_CONTEXT: Akata cells, 48 hours, 0.0005-30μM, modified MTS assay
Numeric only. Scale: nM

CC(C)(C)c1cc(C=C(C#N)C#N)cc(C(C)(C)C)c1O 573

IN: Query CC50 for Cn1cc(C2=C(c3cn(CCCSC(=N)N)c4ccccc34)C(=O)NC2=O)c2ccccc21
OUT: 1150

* * *

- Test system: Epstein-Barr virus (EBV)
- ASSAY_CONTEXT: Akata cells, IgG induction, 48 hours, 0.0005-30μM, EBV genomes by qPCR
MEASURED_METRIC: pIC50
Reminder that pIC50 means the negative base-10 logarithm of the concentration expressed in mol/L.

Worked set:
COMPOUND	pIC50
Nc1ncnc2c1c(I)cn2[C@@H]1O[C@H](CO)[C@@H](O)[C@H]1O	6.05
Cn1cc(C2=C(c3cn(CCCSC(=N)N)c4ccccc34)C(=O)NC2=O)c2ccccc21	6.40
CC(C)(C)c1cc(C=C(C#N)C#N)cc(C(C)(C)C)c1O	6.66

IN: Query pIC50 for N#CC(=C(/N)Sc1ccccc1N)/C(C#N)=C(/N)Sc1ccccc1N
OUT: 6.26

IN: Query pIC50 for COC(=O)[C@@]1(O)C[C@H]2O[C@]1(C)n1c3ccccc3c3c4c(c5c6ccccc6n2c5c31)C(=O)NC4 [K252A]
OUT: 7.85

IN: Query pIC50 for Cc1ccc(S(=O)(=O)/C=C/C#N)cc1
OUT: 6.68

IN: Query pIC50 for COC(=O)/C=C/c1cc(O)ccc1O
OUT: 5.62

* * *

Recorded CC50 values (Akata cells) are given below.
Numeric only. Scale: µM

Worked set:
MOLECULE	SYSTEM_TESTED	OBSERVED
COC(=O)[C@@]1(O)C[C@H]2O[C@]1(C)n1c3ccccc3c3c4c(c5c6ccccc6n2c5c31)C(=O)NC4 [K252A]	Akata cells	0.08
Cc1ccc(S(=O)(=O)/C=C/C#N)cc1	Akata cells	2.64

Shift focus to the following entry.
IN: Query CC50 for N#CC(=C(/N)Sc1ccccc1N)/C(C#N)=C(/N)Sc1ccccc1N
OUT: 7.38

* * *

TI (therapeutic index, CC50/IC50 ratio) values, listed per item
- Tested on: Epstein-Barr virus (EBV)
# output: bare number, no unit

MOLECULE	MEASURED_METRIC	OBSERVED
O=c1cc(N2CCOCC2)oc2c(-c3ccccc3)cccc12	TI (therapeutic index, CC50/IC50 ratio)	3
O=C1Cc2c([nH]c3ccc(Br)cc23)-c2ccccc2N1	TI (therapeutic index, CC50/IC50 ratio)	8

IN: Name the value of TI (therapeutic index, CC50/IC50 ratio) reported for N#CC(=C(/N)Sc1ccccc1N)/C(C#N)=C(/N)Sc1ccccc1N when tested on Epstein-Barr virus (EBV).
OUT: 13

IN: Name the value of TI (therapeutic index, CC50/IC50 ratio) reported for COC[C@H]1OC(=O)c2coc3c2[C@@]1(C)C1=C(C3=O)[C@@H]2CCC(=O)[C@@]2(C)C[C@H]1OC(C)=O when tested on Epstein-Barr virus (EBV).
OUT: 13

IN: Name the value of TI (therapeutic index, CC50/IC50 ratio) reported for COC(=O)[C@@]1(O)C[C@H]2O[C@]1(C)n1c3ccccc3c3c4c(c5c6ccccc6n2c5c31)C(=O)NC4 [K252A] when tested on Epstein-Barr virus (EBV).
OUT: 6
